Ref: paper PMC6204753

Assayed system: SdiA (Salmonella enterica subsp. enterica serovar Typhimurium, UniProt O66040)
Sequence (O66040 entry or part of it): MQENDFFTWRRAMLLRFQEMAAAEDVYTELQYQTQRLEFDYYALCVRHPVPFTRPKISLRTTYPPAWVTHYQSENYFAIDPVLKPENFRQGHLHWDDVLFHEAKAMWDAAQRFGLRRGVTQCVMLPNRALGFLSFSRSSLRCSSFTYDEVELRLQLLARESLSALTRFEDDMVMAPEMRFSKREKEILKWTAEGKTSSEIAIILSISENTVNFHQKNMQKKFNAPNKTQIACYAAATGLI
Assay summary: S. Typhimurium-pJNS25 SdiA reporter, competitive antagonism against 10 nM L-OOHL
Assay type: cell-based
Test parameters: 100 μM compound; average ± STD, change in activity from 10 nM 2 (OOHL); read-out: Antagonism 100 μM Inhibition (%)
compounds and their reported inhibition at 100 µM
Report the value in % with no unit label.

Example cases with answers are listed next.
{"columns": ["Compound", "inhibition at 100 µM, %"],
 "data": [
  ["CCCCCCCCCCCCOc1ccc(C(=O)N[C@H]2CCOC2=O)cc1 [R9]", 42],
  ["CCCCCC(=O)CC(=O)N[C@H]1CCSC1=O [F2]", -19],
  ["O=C(CCc1cccc(I)c1)N[C@H]1CCOC1=O [E33]", 38],
  ["N#Cc1cccc(CC(=O)N[C@H]2CCOC2=O)c1 [E5]", -8],
  ["CSc1ccc(CC(=O)N[C@H]2CCOC2=O)cc1 [E6]", 44],
  ["O=C(Cc1cccc(Cl)c1)N[C@H]1CCOC1=O [C6]", -20]
]}

Task: Look up inhibition at 100 µM for this compound: CCOC(=O)CNC(=O)Cc1cccc(I)c1 [F45]
Result: 92

Task: Look up inhibition at 100 µM for this compound: O=C(CCCCCCCCCN=C=S)CC(=O)N[C@H]1CCOC1=O [compound 11, reference compound]
Result: 128

Task: Look up inhibition at 100 µM for this compound: CCCCCCCC(=O)OCC(O)CO (racemic) [compound 23, 1-octanoyl-rac-glycerol, reference compound]
Result: 12

Task: Look up inhibition at 100 µM for this compound: O=C(Cc1ccc(-c2ccccc2)cc1)N[C@H]1CCOC1=O [C18]
Result: 52

====

Assayed system: SdiA (Salmonella enterica subsp. enterica serovar Typhimurium, UniProt O66040)
Assay summary: S. Typhimurium-pJNS25 SdiA reporter, agonism (luminescence)
Format: cell-based
Test parameters: maximal activity (efficacy) from agonism dose–response; 10 μM OOHL = 100%, DMSO = 0%; read-out: activation (%)
molecules and their reported Emax
Report the value in % with no unit label.

{"columns": ["Molecule", "Emax, %"],
 "data": [
  ["CCCCCC(=O)N[C@H]1CCOC1=O [A2]", 81],
  ["O=C(Cc1cccc([N+](=O)[O-])c1)N[C@H]1CCSC1=O [F11]", 97],
  ["O=C(CC1CCCCC1)N[C@H]1CCOC1=O [S7]", 89],
  ["O=C(Cc1cccc(Br)c1)N[C@H]1CCOC1=O [C8]", 96]
]}

Task: Look up Emax for this molecule: CCCCCCCC(=O)N[C@H]1CCSC1=O [F5]
Result: 79

Task: Look up Emax for this molecule: O=C(Cc1ccccc1Br)N[C@H]1CCOC1=O [C9]
Result: 103

Task: Look up Emax for this molecule: CCCCCCCC(=O)CC(=O)N[C@H]1CCOC1=O [A7]
Result: 85

Task: Look up Emax for this molecule: CCCCCC(=O)CC(=O)N[C@H]1CCSC1=O [F2]
Result: 119

Task: Look up Emax for this molecule: O=C(COc1ccc(I)cc1)N[C@H]1CCOC1=O [E22]
Result: 108

Task: Look up Emax for this molecule: O=C(COc1ccc(I)cc1)N[C@H]1CCSC1=O [RN22]
Result: 93

Task: Look up Emax for this molecule: Cc1ccc(OCC(=O)N[C@H]2CCOC2=O)cc1 [E15]
Result: 98

Task: Look up Emax for this molecule: O=C(Cc1cccc(Cl)c1)N[C@H]1CCOC1=O [C6]
Result: 95

====

Assayed system: SdiA (Salmonella enterica subsp. enterica serovar Typhimurium)
Assay summary: S. Typhimurium-pJNS25 SdiA reporter, competitive antagonism against 10 nM L-OOHL
Format: cell-based
Test parameters: 1 μM compound; average ± STD, change in activity from 10 nM 2 (OOHL)
molecules and their reported Antagonism 1 μM Inhibition (%)
Hi, when you answer, please include the unit after the number. Thanks!

Example cases with answers are listed next.
{"columns": ["Molecule", "Antagonism 1 μM Inhibition (%)"],
 "data": [
  ["O=C(CCCc1c[nH]c2ccccc12)N[C@@H]1CCOC1=O", "30 ± 15%"],
  ["O=C(Cc1ccccc1)N[C@H]1CCSC1=O", "-1 ± 4%"],
  ["CCCCCS(=O)(=O)N[C@H]1CCOC1=O", "10 ± 9%"]
]}

Task: Look up Antagonism 1 μM Inhibition (%) for this molecule: O=C(CCCOc1ccc(Cl)cc1)N[C@H]1CCOC1=O [compound 10, reference compound]
Result: 9 ± 12%

Task: Look up Antagonism 1 μM Inhibition (%) for this molecule: "O=C(Cc1ccccc1)N[C@H]1CCOC1=O"
Result: 9 ± 12%

====

Assayed system: SdiA (Salmonella enterica subsp. enterica serovar Typhimurium, UniProt O66040)
Assay summary: S. Typhimurium-pJNS25 SdiA reporter, competitive antagonism against 10 nM L-OOHL
Format: cell-based
Test parameters: 100 μM compound; average ± STD, change in activity from 10 nM 2 (OOHL); read-out: Antagonism 100 μM Inhibition (%)
molecules and their reported inhibition at 100 µM
Report the value in % with no unit label.

Example cases with answers are listed next.
{"columns": ["Smiles string", "inhibition at 100 µM [%]"],
 "data": [
  ["COc1ccc(CC(=O)N[C@H]2CCSC2=O)cc1", -21],
  ["O=C(Cc1ccc(Br)cc1)N[C@@H]1CCOC1=O", 16],
  ["CCCCCC(=O)N[C@H]1CCOC1=O", 3],
  ["O=C(Cc1ccccc1Br)N[C@H]1CCOC1=O", -48],
  ["CCCCCCCCCCOc1ccc(C(=O)N[C@H]2CCOC2=O)cc1", 43]
]}

Now for another entry.
Task: Look up inhibition at 100 µM for this molecule: "O=C(Cc1cccc([N+](=O)[O-])c1)N[C@H]1CCSC1=O"
Result: -16

====

Assayed system: SdiA (Salmonella enterica subsp. enterica serovar Typhimurium)
Assay summary: S. Typhimurium-pJNS25 SdiA reporter, competitive antagonism against 10 nM L-OOHL
Type: cell-based
Test parameters: 100 μM compound; average ± STD, change in activity from 10 nM 2 (OOHL)
// classify: if (Antagonism 100 μM Inhibition (%) < 10%) Criterion met else Criterion not met

As a guide, the following entries are already answered.
{"columns": ["Compound", "Assayed system", "Assigned label"],
 "data": [
  ["O=C(N[C@H]1CCOC1=O)c1ccc(I)cc1 [Q5]", "SdiA (Salmonella enterica subsp. enterica serovar Typhimurium)", "Criterion met"],
  ["CCCC(=O)N[C@H]1CCOC1=O [A1, reference compound]", "SdiA (Salmonella enterica subsp. enterica serovar Typhimurium)", "Criterion met"],
  ["CC(C)Oc1ccc(C(=O)N[C@H]2CCOC2=O)cc1 [R3]", "SdiA (Salmonella enterica subsp. enterica serovar Typhimurium)", "Criterion not met"],
  ["O=C(CCc1ccc2c(c1)OCO2)N[C@H]1CCOC1=O [E39]", "SdiA (Salmonella enterica subsp. enterica serovar Typhimurium)", "Criterion not met"]
]}

Next:
Task: Does the reported Antagonism 100 μM Inhibition (%) of O=C(CCCc1ccccc1)N[C@H]1CCOC1=O [compound 6, reference compound] stay below 10%?
Result: Criterion not met

====

Assayed system: SdiA (Salmonella enterica subsp. enterica serovar Typhimurium)
Assay summary: S. Typhimurium-pJNS25 SdiA reporter, competitive antagonism against 10 nM L-OOHL
Format: cell-based
Test parameters: 1 μM compound; average ± STD, change in activity from 10 nM 2 (OOHL); read-out: Antagonism 1 μM Inhibition (%)
compounds and their reported inhibition at 1 µM
Report the value in % with no unit label.

{"columns": ["Compound", "inhibition at 1 µM (%)"],
 "data": [
  ["CCCCCCC(CCCC)C(=O)N[C@H]1CCOC1=O (stereo partly drawn)", 48],
  ["CCCCCCCCCCCC(=O)N[C@H]1CCOC1=O", 17],
  ["CCCCCC(=O)N[C@H]1CCOC1=O", 15],
  ["O=C(Cc1cccc([N+](=O)[O-])c1)N[C@H]1CCOC1=O", 0],
  ["CCCCCCCC(=O)CC(=O)N[C@H]1CCOC1=O", -4]
]}

Now for another entry.
Task: Item Cc1cccc(CC(=O)N[C@H]2CCOC2=O)c1 [E1] with SdiA (Salmonella enterica subsp. enterica serovar Typhimurium) - inhibition at 1 µM?
Result: -6

====

Assayed system: SdiA (Salmonella enterica subsp. enterica serovar Typhimurium, UniProt O66040)
Assay summary: S. Typhimurium-pJNS25 SdiA reporter, competitive antagonism against 10 nM L-OOHL
Format: cell-based
Test parameters: 1 μM compound; average ± STD, change in activity from 10 nM 2 (OOHL)
Protocol: Biological assays for SdiA activity. Cell-based reporter strains that rely on detecting the transcriptional activity of LuxR-type receptors are commonly used to assess the activity of exogenous ligands. We used the S. Typhimurium-pJNS25 reporter strain constructed by Smith and Ahmer and also used by Janssens et al. to examine SdiA activity. […] SdiA activity is then measured using standard β-galactosidase assays. […]
Recorded metric: Antagonism 1 μM Inhibition (%)
Report the value in % with no unit label.

Example cases with answers are listed next.
{"columns": ["Molecule", "Assayed system", "Quantitative result"],
 "data": [
  ["CCCCCCCCCC(=O)CC(=O)NC1CCCCC1=O (stereo not shown) [compound 15, reference compound]", "SdiA (Salmonella enterica subsp. enterica serovar Typhimurium, UniProt O66040)", 16],
  ["O=C(N[C@H]1CCOC1=O)c1ccccc1Br", "SdiA (Salmonella enterica subsp. enterica serovar Typhimurium, UniProt O66040)", 2],
  ["O=C(CCCc1ccccc1)N[C@H]1CCOC1=O [compound 6, reference compound]", "SdiA (Salmonella enterica subsp. enterica serovar Typhimurium, UniProt O66040)", 31]
]}

Task: Look up Antagonism 1 μM Inhibition (%) for this molecule: "O=C(N[C@H]1CCOC1=O)c1cnn(-c2ccccc2)c1C(F)(F)F"
Result: 26

Task: Look up Antagonism 1 μM Inhibition (%) for this molecule: "O=C(Cc1ccc([N+](=O)[O-])cc1)N[C@H]1CCOC1=O"
Result: 24

Task: Look up Antagonism 1 μM Inhibition (%) for this molecule: "CCCCCCCCc1ccc(C(=O)N[C@H]2CCOC2=O)cc1"
Result: 17

Task: Look up Antagonism 1 μM Inhibition (%) for this molecule: O=C(CC(=O)N[C@H]1CCOC1=O)Cc1ccccc1 [compound 5, reference compound]
Result: 23

Task: Look up Antagonism 1 μM Inhibition (%) for this molecule: "O=C(N[C@H]1CCOC1=O)C1CCCC1"
Result: 27

Task: Look up Antagonism 1 μM Inhibition (%) for this molecule: "O=C(Cc1ccccc1[N+](=O)[O-])N[C@H]1CCOC1=O"
Result: 5

Task: Look up Antagonism 1 μM Inhibition (%) for this molecule: "O=C(N[C@H]1CCOC1=O)c1ccc([N+](=O)[O-])cc1"
Result: 28

Task: Look up Antagonism 1 μM Inhibition (%) for this molecule: "O=C(Cc1cccc([N+](=O)[O-])c1)Nc1ccccc1"
Result: 20
